biological target: P. falciparum Rh5 (Rh5 – basigin interaction) (Plasmodium falciparum); assay: biochemical; design: AlphaScreen of Rh5 - His-tagged basigin interaction with anti-Rh5 mAb beads; inhibition of luminescence signal; settings: Batch Reference=01; confirmation screen, duplicate
Sequence (Q8IFM5 24-526): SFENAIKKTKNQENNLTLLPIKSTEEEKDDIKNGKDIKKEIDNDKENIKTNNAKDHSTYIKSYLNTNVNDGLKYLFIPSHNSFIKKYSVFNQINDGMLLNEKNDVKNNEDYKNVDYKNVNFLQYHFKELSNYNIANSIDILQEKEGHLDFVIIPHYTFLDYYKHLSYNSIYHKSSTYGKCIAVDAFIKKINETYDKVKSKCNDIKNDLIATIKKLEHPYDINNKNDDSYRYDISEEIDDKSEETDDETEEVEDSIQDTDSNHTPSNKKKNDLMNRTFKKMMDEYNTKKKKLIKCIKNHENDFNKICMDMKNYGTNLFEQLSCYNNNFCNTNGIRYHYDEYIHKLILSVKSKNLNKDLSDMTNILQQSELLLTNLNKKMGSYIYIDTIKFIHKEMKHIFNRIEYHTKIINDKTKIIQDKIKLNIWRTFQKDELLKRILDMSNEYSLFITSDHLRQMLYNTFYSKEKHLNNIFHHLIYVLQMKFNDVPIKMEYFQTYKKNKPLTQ
Where a name gives a salt, the structure may show the parent alone.
Give inhibition at 10 µM for every item shown.
Return type: number; implicit unit %.

Provide value of inhibition at 10 µM for this record tested with P. falciparum Rh5 (Rh5 – basigin interaction) (Plasmodium falciparum): CN1CCc2cc(O)cc3c2[C@H]1Cc1ccc(O)c(O)c1-3 [WEHI-1215043]
84.7

Provide value of inhibition at 10 µM for this record tested with P. falciparum Rh5 (Rh5 – basigin interaction) (Plasmodium falciparum): O=C1C=CC(=O)c2c1ccc1c2ccc2ccccc21 [WEHI-1216729, Chrysene-1,4-quinone]
71

Provide value of inhibition at 10 µM for this record tested with P. falciparum Rh5 (Rh5 – basigin interaction) (Plasmodium falciparum): CN1CCc2cccc3c2[C@H]1Cc1ccc(O)c(O)c1-3 [WEHI-1216442, (R)-(-)-Apomorphine hydrochloride]
76.5

Provide value of inhibition at 10 µM for this record tested with P. falciparum Rh5 (Rh5 – basigin interaction) (Plasmodium falciparum): COCCCOc1ccnc(C[S+]([O-])c2nc3ccccc3[nH]2)c1C (stereo not shown) [rabeprazole]
68

Provide value of inhibition at 10 µM for this record tested with P. falciparum Rh5 (Rh5 – basigin interaction) (Plasmodium falciparum): CC#C[C@]1(O)CC[C@H]2[C@@H]3CCC4=CC(=O)CCC4=C3[C@@H](c3ccc(N(C)C)cc3)C[C@@]21C [WEHI-1215337, Mifepristone]
91.7

Provide value of inhibition at 10 µM for this record tested with P. falciparum Rh5 (Rh5 – basigin interaction) (Plasmodium falciparum): O=C(Nc1cccc2c(=O)cc(-c3nnn[nH]3)oc12)c1ccc(OCCCCc2ccccc2)cc1 [pranlukast]
69

Provide value of inhibition at 10 µM for this record tested with P. falciparum Rh5 (Rh5 – basigin interaction) (Plasmodium falciparum): NCCNCCNCCNCCN [WEHI-1217021]
96.9

Provide value of inhibition at 10 µM for this record tested with P. falciparum Rh5 (Rh5 – basigin interaction) (Plasmodium falciparum): CCCN1CCc2cc(O)cc3c2[C@H]1Cc1ccc(O)c(O)c1-3 [WEHI-1215052]
87.2

Provide value of inhibition at 10 µM for this record tested with P. falciparum Rh5 (Rh5 – basigin interaction) (Plasmodium falciparum): CCCN1CCc2cccc3c2[C@H]1Cc1ccc(O)c(O)c1-3 [WEHI-1215034, R(-)-Propylnorapomorphine hydrochloride]
84.9

Provide value of inhibition at 10 µM for this record tested with P. falciparum Rh5 (Rh5 – basigin interaction) (Plasmodium falciparum): C[n+]1cc2c3c(ccc2c2ccc4cc5c(cc4c21)OCO5)OCO3 [WEHI-1215580, Sanguinarine chloride]
99

Provide value of inhibition at 10 µM for this record tested with P. falciparum Rh5 (Rh5 – basigin interaction) (Plasmodium falciparum): O=C(O)Cc1cccc(OCCCN(Cc2cccc(C(F)(F)F)c2Cl)CC(c2ccccc2)c2ccccc2)c1 [WEHI-1216231, GW 3965 hydrochloride]
51.1

Provide value of inhibition at 10 µM for this record tested with P. falciparum Rh5 (Rh5 – basigin interaction) (Plasmodium falciparum): CC[N+](C)(CC)CCC[n+]1c(-c2ccccc2)c2cc(N)ccc2c2ccc(N)cc21 [WEHI-1216760, Propidium iodide]
77

Provide value of inhibition at 10 µM for this record tested with P. falciparum Rh5 (Rh5 – basigin interaction) (Plasmodium falciparum): NC(Cc1cc(O)c(O)cc1O)C(=O)O (racemic) [WEHI-1215200, 6-Hydroxy-DL-DOPA]
80.7
